Biological target: RORγ (Homo sapiens, UniProt P51449)
Sequence (P51449 269-508 limits assumed): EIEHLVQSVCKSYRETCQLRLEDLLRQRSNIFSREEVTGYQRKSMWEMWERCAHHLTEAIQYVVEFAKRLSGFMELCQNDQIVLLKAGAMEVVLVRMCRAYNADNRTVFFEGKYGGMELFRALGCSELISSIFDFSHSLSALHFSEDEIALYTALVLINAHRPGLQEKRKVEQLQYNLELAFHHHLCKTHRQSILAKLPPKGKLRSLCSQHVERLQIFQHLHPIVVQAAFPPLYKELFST
Experiment: Reporter Gene Assay (RGA): RORγ transactivation of a luciferase reporter in transiently transfected HEK 293 cells
Settings: HEK 293 cells cotransfected with pGL4.3 luc2P/GAL4UAS and pBIND Gal4DBD hRORC LBD; 20-24 h incubation; luciferase readout
Entries and their IC50 values follow.
measured_attribute: IC50 (nM)

| smiles_string | numeric_value |
| --- | --- |
| CC[C@H](C)n1c(=O)c(NCc2ccc(S(=O)(=O)CC)nc2)nc2ncc(-c3c(C)ncnc3C3CC3)nc21 | 2740 |
| CCS(=O)(=O)c1ccc(CNc2nc3ncc(-c4c(C)ncnc4C4CC4)nc3n([C@@H](C)C3CC3)c2=O)nc1 | 269 |
| CCS(=O)(=O)c1ccc(CNc2nc3ncc(-c4c(C)nc(N)nc4C4CC4)nc3n([C@@H](C)C3CC3)c2=O)nc1 | 274 |
| CCS(=O)(=O)c1ccc(CNc2nc3ncc(-c4c(OC)ncnc4C4CC4)nc3n([C@@H](C)C3CC3)c2=O)nc1 | 149 |
| CC[C@H](C)n1c(=O)c(NCc2ccc(S(=O)(=O)CC)cn2)nc2ncc(-c3c(C)ncnc3C3CC3)nc21 | 338 |
| CC[C@H](C)n1c(=O)c(NCc2ccc(S(C)(=O)=O)cn2)nc2ncc(-c3c(C)ncnc3C3CC3)nc21 | 1330 |
| CC[C@H](C)n1c(=O)c(NCc2ccc(S(=O)(=O)CC)cn2)nc2ncc(-c3c(OC)ncnc3C3CC3)nc21 | 210 |
| CCS(=O)(=O)c1ccc(CNc2nc3nnc(-c4c(C)ncnc4C4CC4)cc3n([C@@H](C)C3CC3)c2=O)nc1 | 2900 |
| CCS(=O)(=O)c1ccc(CNc2nc3ncc(-c4nccnc4C4CC4)nc3n([C@@H](C)C3CC3)c2=O)nc1 | 454 |
